Where do the numbers come from? From patent US20140135270A1.

# EXPERIMENTAL_SYSTEM: His-BIR2-3 (125-356, C202A/C213G, XIAP) (Homo sapiens, UniProt P98170, C202A/C213G)
# Construct: additions of His-BIR2-3 (125-356, C202A/C213G, XIAP), fluorescein labeled dimeric SMAC peptide
# Sequence (P98170 125-356 C202A/C213G): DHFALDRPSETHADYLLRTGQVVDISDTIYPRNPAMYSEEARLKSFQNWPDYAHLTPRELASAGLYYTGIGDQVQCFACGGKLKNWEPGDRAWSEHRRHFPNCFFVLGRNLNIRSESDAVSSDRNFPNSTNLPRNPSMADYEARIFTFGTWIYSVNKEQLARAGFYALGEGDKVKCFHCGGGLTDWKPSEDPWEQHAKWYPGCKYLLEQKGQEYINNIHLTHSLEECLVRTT
# ASSAY_REMARKS: XIAP-BIR2-3 Dimeric SMAC Peptide Homogeneous Time Resolved Fluorescence (HTRF) Assay
# SETUP_CONDITIONS: fluorescein labeled dimeric SMAC peptide
PARAMETER: IC50 (nM)
The reply should contain only the number, in nM.

Q. Param item = "CN[C@@H](C)C(=O)N[C@H](C(=O)N1C[C@H]2CCCCOc3ccc(cc3)C[C@@H](C(=O)NS(=O)(=O)C3CC3)NC(=O)[C@H](Cc3ccc4ccccc4c3)NC(=O)[C@@H]3C[C@H](CCCCOc4ccc(cc4)C[C@@H](C(=O)O)NC(=O)[C@H](Cc4ccc5ccccc5c4)NC(=O)[C@@H]1C2)CN3C(=O)[C@@H](NC(=O)[C@H](C)NC)C(C)(C)C)C(C)(C)C" ; retrieve measured IC50.
A. 3

Q. Next entry: "CC[C@H](NC(=O)[C@H](C)NC)C(=O)N1C[C@@H]2C[C@H]1C(=O)N[C@@H](C)C(=O)N[C@H](C(=O)O)Cc1ccc(cc1)C(=O)N[C@H]1C[C@@H](C(=O)N[C@@H](Cc3ccc4ccccc4c3)C(=O)N[C@H](C(=O)O)Cc3ccc(cc3)OC/C=C/CO2)N(C(=O)[C@@H](NC(=O)[C@H](C)NC)C(C)(C)C)C1"
A. 7.9

Q. Next entry: "CN[C@@H](C)C(=O)N[C@H](C(=O)N1C[C@@H]2C[C@H]1C(=O)N[C@@H](C)C(=O)N[C@H](C(=O)O)Cc1ccc(cc1)C(=O)N[C@H]1C[C@@H](C(=O)N[C@@H](Cc3ccc4ccccc4c3)C(=O)N[C@H](C(=O)O)Cc3ccc(cc3)OC/C=C/CO2)N(C(=O)[C@@H](NC(=O)[C@H](C)NC)C(C)(C)C)C1)C(C)(C)C"
A. 3.5
